Test system: HL‐60 cells
test-description: Cell growth assay (MTS), HL-60 cells
Type: cell-based
condition: Homo sapiens, HL-60, 72 h of treatment, mean ± SE
Catalogue of IC50 readings, one per entry.
Output spec: scalar in nM, unitless text.

Known results for molecules:
>>> measured_number("CC[C@]1(O)C[C@@H]2CN(CCc3c([nH]c4ccccc34)[C@@](C(=O)OC)(c3cc4c(cc3OC)N(C)[C@H]3[C@@](O)(C(=O)OC)[C@H](OC(C)=O)[C@]5(CC)C=CCN6CC[C@]43[C@@H]65)C2)C1 [Vinblastine, reference compound]")
50
>>> measured_number("CC(=O)O[C@H]1C(=O)[C@@]2(C)[C@H]([C@H](OC(=O)c3ccccc3)[C@]3(O)C[C@H](OC(=O)[C@H](O)[C@@H](NC(=O)c4ccccc4)c4ccccc4)C(C)=C1C3(C)C)[C@]1(OC(C)=O)CO[C@@H]1C[C@@H]2O [Paclitaxel, reference compound]")
20

Proceeding to the next molecule to report its IC50.
Report IC50 for COc1ccc(Cn2cc3c(c2-c2cc(OC)c(OC)c(OC)c2)CCc2cnoc2-3)cc1OC 3000

###

System: MCF‐7 cells
test-description: Cell growth assay (MTS), MCF-7 breast cancer cells
Format: cell-based
condition: 72 h, the maximum concentration used in the MTS assay is reported
Experimental: HL‐60 cells were obtained from ATCC® (CCL‐240), whereas its variant HL‐60R was selected for MDR by exposure to gradually increasing concentrations of doxorubicin. MCF‐7 cells were obtained from ATCC® (HTB‐22). […] Cells were seeded at 5 × 10^3 cells/well onto 96 well plates and incubated overnight at 37°C. […] Cell growth inhibition was expressed as a percentage of the absorbance of the control cells. […]
pIC50: −log10 of the molar value.
Catalogue of pIC50 readings, one per entry.

>>> result("COc1ccccc1Cn1cc2c(c1)-c1oncc1CC2")
"< 4.30"
>>> result("COc1cccc(Cn2cc3c(c2)-c2oncc2CC3)c1")
"< 4.30"
>>> result("COc1cc(Cn2cc3c(c2)-c2oncc2CC3)cc(OC)c1OC")
"< 5.30"
>>> result("COc1ccc(Cn2cc3c(c2)-c2oncc2CC3)cc1OC")
"< 4.30"

Proceeding to the next compound to report its pIC50.
Report pIC50 for c1ccc(Cn2cc3c(c2)-c2oncc2CC3)cc1 < 4.30
